Sourced from ChEMBL document CHEMBL3352032

assay: Inhibition of beta-hematin formation assessed as inhibition of hemozoin formation by UV spectrophotometry; format: physicochemical
result-type: inhibition (INH)

INSERT INTO assay_data (compound_structure, result_type, measured_value) VALUES
  ('CC(C)C[C@H](Nc1ccnc2cc(Cl)ccc12)C(=O)N1CCN(C)CC1', 'inhibition (INH)', 'Dose-dependent effect'),
  ('C[C@H](Nc1ccnc2cc(Cl)ccc12)C(=O)N1CCN(C)CC1', 'inhibition (INH)', 'Dose-dependent effect'),
  ('CSCC[C@H](Nc1ccnc2cc(Cl)ccc12)C(=O)N1CCN(C)CC1', 'inhibition (INH)', 'Dose-dependent effect'),
  ('CN1CCN(C(=O)CNc2ccnc3cc(Cl)ccc23)CC1', 'inhibition (INH)', 'Dose-dependent effect'),
  ('CN1CCN(C(=O)CC[C@H](Cc2ccccc2)Nc2ccnc3cc(Cl)ccc23)CC1', 'inhibition (INH)', 'Dose-dependent effect'),
  ('CN1CCN(C(=O)[C@H](Cc2c[nH]c3ccccc23)Nc2ccnc3cc(Cl)ccc23)CC1', 'inhibition (INH)', 'Dose-dependent effect'),
  ('CCN(CC)CCNC(=O)[C@H](C)Nc1ccnc2cc(Cl)ccc12', 'inhibition (INH)', 'Dose-dependent effect'),
  ('CC[C@H](C)[C@@H](CC(=O)N1CCN(C)CC1)Nc1ccnc2cc(Cl)ccc12', 'inhibition (INH)', 'Dose-dependent effect'),
  ('C[C@H](Nc1ccnc2cc(Cl)ccc12)C(=O)NCCCN(C)C', 'inhibition (INH)', 'Dose-dependent effect'),
  ('C[C@H](Nc1ccnc2cc(Cl)ccc12)C(=O)N1CCN(c2ccccc2)CC1', 'inhibition (INH)', 'Dose-dependent effect');

###

Recorded log K values for a group of compounds are listed next.
assay: Association constant, log K of the compound in aqueous DMSO at pH 7.5 assessed as complex formation by UV spectrophotometry; assay type: physicochemical; conditions: buffer
result-type: log K

INSERT INTO assay_data (compound, result_type, measured_value) VALUES
  ('CN1CCN(C(=O)CCNc2ccnc3cc(Cl)ccc23)CC1', 'log K', 6.43),
  ('CCN(CC)CCNC(=O)[C@H](C)Nc1ccnc2cc(Cl)ccc12', 'log K', 6.03),
  ('CC(C)C[C@H](Nc1ccnc2cc(Cl)ccc12)C(=O)N1CCN(C)CC1', 'log K', 5.38),
  ('CN1CCN(C(=O)[C@H](Cc2c[nH]c3ccccc23)Nc2ccnc3cc(Cl)ccc23)CC1', 'log K', 6.36),
  ('CN1CCN(C(=O)[C@H](Cc2ccccc2)Nc2ccnc3cc(Cl)ccc23)CC1', 'log K', 5.11),
  ('CCN(CC)CCCC(C)Nc1ccnc2cc(Cl)ccc12 (configuration not stated)', 'log K', 5.52),
  ('CSCC[C@H](Nc1ccnc2cc(Cl)ccc12)C(=O)N1CCN(C)CC1', 'log K', 5.04),
  ('CC[C@H](C)[C@@H](CC(=O)N1CCN(C)CC1)Nc1ccnc2cc(Cl)ccc12', 'log K', 6.26),
  ('CN1CCN(C(=O)CCCNc2ccnc3cc(Cl)ccc23)CC1', 'log K', 6.52),
  ('CN1CCN(C(=O)C[C@H](Cc2ccccc2)Nc2ccnc3cc(Cl)ccc23)CC1', 'log K', 5.8),
  ('C[C@H](O)[C@H](Nc1ccnc2cc(Cl)ccc12)C(=O)N1CCN(C)CC1', 'log K', 6.07),
  ('CN1CCN(C(=O)CNc2ccnc3cc(Cl)ccc23)CC1', 'log K', 7.34);

###

test: Inhibition of beta-hematin formation assessed as inhibition of hemozoin formation by UV spectrophotometry; assay type: physicochemical
result-type: IC50 (mMequiv)

INSERT INTO measurements (compound, result_type, measured_value) VALUES
  ('CC(C)C[C@H](Nc1ccnc2cc(Cl)ccc12)C(=O)N1CCN(C)CC1', 'IC50', 0.2283),
  ('CC[C@H](C)[C@@H](CC(=O)N1CCN(C)CC1)Nc1ccnc2cc(Cl)ccc12', 'IC50', 0.2197),
  ('CN1CCN(C(=O)CCNc2ccnc3cc(Cl)ccc23)CC1', 'IC50', 0.3293),
  ('CCN(CC)CCNC(=O)[C@H](C)Nc1ccnc2cc(Cl)ccc12', 'IC50', 0.1531),
  ('CCN(CC)CCCC(C)Nc1ccnc2cc(Cl)ccc12 (stereo not drawn) [CHLOROQUINE]', 'IC50', 0.17),
  ('CN1CCN(C(=O)C[C@H](Cc2ccccc2)Nc2ccnc3cc(Cl)ccc23)CC1', 'IC50', 0.1739),
  ('CCN(CC)CCCNC(=O)[C@H](C)Nc1ccnc2cc(Cl)ccc12', 'IC50', 0.2145),
  ('CC(C)[C@H](Nc1ccnc2cc(Cl)ccc12)C(=O)N1CCN(C)CC1', 'IC50', 0.2349),
  ('CSCC[C@H](Nc1ccnc2cc(Cl)ccc12)C(=O)N1CCN(C)CC1', 'IC50', 0.3595),
  ('CN1CCN(C(=O)[C@H](Cc2c[nH]c3ccccc23)Nc2ccnc3cc(Cl)ccc23)CC1', 'IC50', 0.3302),
  ('CN1CCN(C(=O)[C@H](Cc2ccccc2)Nc2ccnc3cc(Cl)ccc23)CC1', 'IC50', 0.6619),
  ('CC[C@H](C)[C@H](Nc1ccnc2cc(Cl)ccc12)C(=O)N1CCN(C)CC1', 'IC50', 0.2295),
  ('CN1CCN(C(=O)CC[C@H](Cc2ccccc2)Nc2ccnc3cc(Cl)ccc23)CC1', 'IC50', 0.1961),
  ('C[C@H](O)[C@H](Nc1ccnc2cc(Cl)ccc12)C(=O)N1CCN(C)CC1', 'IC50', 0.3837),
  ('C[C@H](Nc1ccnc2cc(Cl)ccc12)C(=O)N1CCN(C)CC1', 'IC50', 0.1677),
  ('CN1CCN(C(=O)CNc2ccnc3cc(Cl)ccc23)CC1', 'IC50', 0.1915),
  ('C[C@H](Nc1ccnc2cc(Cl)ccc12)C(=O)N1CCN(c2ccccc2)CC1', 'IC50', 0.2082),
  ('C[C@H](Nc1ccnc2cc(Cl)ccc12)C(=O)NCCN1CCCCC1', 'IC50', 0.2166);
